Item-by-item account of melting point
READOUT: melting point

1. O=S(=O)(N[C@H]1CC[C@H](CCN2CCN(c3nccc4c3CCO4)CC2)CC1)c1ccccc1 | 168 °C
2. COC1COC(c2ccccc2)OC1 (stereo unspecified) | 51 °C
3. CCOc1ccc(-c2nc(-c3cc4c(c(C(=O)O)c3)OC(C)(C)C4)cs2)cc1OCC | 106 to 107 °C
4. NS(=O)(=O)c1cnc(-c2cn(-c3nc(-c4ccc(Cl)cc4)cc(C(F)(F)F)n3)cn2)s1 | 263 °C
5. Cc1cc(SC2=C(O)CC(CCc3ccsc3)(C(C)C)OC2=O)c(C(C)(C)C)cc1CO (stereo unspecified) | 63 to 70 °C
6. CCCCCCCCCCCCOc1ccc(O)c(C(=O)NNC(=O)c2ccccc2O)c1 | 244 °C
7. N#Cc1nn(-c2c(Cl)cc(C(F)(F)F)cc2Cl)c(Cl)c1C=O | 145 to 146 °C
8. COc1cccc2c1CCC(COC(=O)N(c1ccccc1)c1ccccc1)C2 (stereo unspecified) | 144 to 146 °C
9. Cc1c(NC(=O)c2ccc(-c3ccc(F)cc3)cc2)ccc2cc(CN3CCC(CC(=O)N(C)C)CC3)cnc12 | 200 to 201 °C
10. COCCOc1ccc(/C=C/COC(=O)NS(=O)(=O)NCCc2ccccc2)c(Oc2ncc(C(F)(F)F)cc2Cl)c1 | 113 to 114 °C
11. COCc1cccc(OCCc2cnc(SC)[nH]c2=O)c1 | 129 to 131 °C
12. CC(C)(C)C(=O)Nc1nc2[nH]c3cccc(Cl)c3c2c(=O)[nH]1 | 186 to 190 °C
13. O=Cc1csc(N(c2ccccc2)c2ccccc2)n1 | 160 to 161 °C
14. O=C(Nc1ccc(C(F)(F)F)cc1)Nc1nc(OCC(F)(F)F)cc(C(F)(F)F)n1 | 197 to 199 °C
15. CC(=Cc1c[nH]c2ccc3c(c12)CCCO3)[N+](=O)[O-] | 246 to 247 °C
16. COc1ccc(CCNC(=O)C23CC4CC(CC(C4)C2)C3)cc1OC | 132 to 133 °C
17. Cc1cc(Oc2cccc(C(F)(F)F)c2)nn1C(=O)Nc1ccc(F)cc1 | 70 to 72 °C
18. COc1cc(C2=NNC(=O)CC2)ccc1O | 209 to 210 °C
19. O=C(O)c1cn2c3c(cc(F)cc3c1=O)C1CCCCC12 (stereo unspecified) | 281 to 282 °C
20. Cc1c(C(=O)Nc2ccc(Cl)c([N+](=O)[O-])c2)cnn1-c1ccc(Cl)cc1 | 221 to 225 °C
21. C=CCn1cc(C(=O)OCC)c(=O)c2cc(C(=O)OC)ccc21 | 156 to 163 °C
22. O=C1Cc2cccc3c2N1CCC3 | 90 to 93 °C
23. CCCc1nn(C)c2c(=O)[nH]c(-c3cc(-n4ccnc4)ccc3OCC)nc12 | 193 to 194 °C
24. Cc1nc(NC(=O)c2cnn3c(C(F)(F)F)cc(-c4ccc(C(F)(F)F)c(OCC(F)(F)F)c4)nc23)sc1S(N)(=O)=O | 264 °C
25. O=C(CCS)Nc1ccc(Nc2ccccc2)cc1 | 98.3 to 99.5 °C
26. CC1(C)C(c2ccc(S(C)(=O)=O)cc2)=C(c2ccccc2)C1O (stereo unspecified) | 79 to 81 °C
